Below is a list of entries, each paired with its recorded growth yield value.
Test system: Trichoderma virens ATCC 9645
Experiment: growth yield (OD600) with compound + IPBC relative to untreated control; higher = less growth inhibition
Settings: compound concentration: 100 uM; IPBC concentration: 200 ng/ml; 72 h
Structures can show the parent of a compound that is named as a salt. Out of some 1,300 compounds screened, about 130 (10%) showed an effect of 50% or more. This excerpt belongs to a sample that is enriched for strong results.
Give the value; after it, write the unit.

// worked examples, growth yield included
| MOLECULE | RESULT |
| --- | --- |
| COc1ccc2cc([C@@H](C)C(=O)O)ccc2c1 [(R) -Naproxen sodium salt] + CCCCNC(=O)OCC#CI [3-iodo-2-propynyl butylcarbamate (IPBC)] | 81.5% |
| COc1ccc2cc([C@H](C)C(=O)O)ccc2c1 [(S)-Naproxen] + CCCCNC(=O)OCC#CI [3-iodo-2-propynyl butylcarbamate (IPBC)] | 78.6% |
| O=C(O)Cc1cc(I)c(Oc2ccc(O)c(I)c2)c(I)c1 [Tiratricol, 3,3',5-triiodothyroacetic acid] + CCCCNC(=O)OCC#CI [3-iodo-2-propynyl butylcarbamate (IPBC)] | 73.4% |
| Nc1c(Br)cc(Br)cc1CN[C@H]1CC[C@H](O)CC1 [Ambroxol hydrochloride] + CCCCNC(=O)OCC#CI [3-iodo-2-propynyl butylcarbamate (IPBC)] | 88.9% |

growth yield measured on CC(C)(C)NC(=O)[C@H]1CC[C@H]2[C@@H]3CC[C@H]4NC(=O)C=C[C@]4(C)[C@H]3CC[C@]12C [Finasteride] + CCCCNC(=O)OCC#CI [3-iodo-2-propynyl butylcarbamate (IPBC)] = 87.5%

====

System: Trichoderma virens ATCC 9645
Test: growth yield (OD600) with compound + IPBC relative to untreated control; higher = less growth inhibition
Conditions: compound concentration: 100 uM; IPBC concentration: 200 ng/ml; 72 h
Structures can show the parent of a compound that is named as a salt. Out of some 1,300 compounds screened, about 130 (10%) showed an effect of 50% or more. The list comes from a sample in which strong results are over-represented; it also holds close analogues and randomly drawn compounds.
This listing pairs compounds with measured growth yield.
Report as a plain number; the unit % is understood.

| COMPOUND | SYSTEM UNDER TEST | MEASURED NUMBER |
| --- | --- | --- |
| CC(C)NC[C@@H](O)COc1ccc(CC(N)=O)cc1 [(R)-(+)-Atenolol] + CCCCNC(=O)OCC#CI [3-iodo-2-propynyl butylcarbamate (IPBC)] | Trichoderma virens ATCC 9645 | 98.5 |
| CN(C)CCCN1c2ccccc2CCc2ccc(Cl)cc21 [Clomipramine hydrochloride] + CCCCNC(=O)OCC#CI [3-iodo-2-propynyl butylcarbamate (IPBC)] | Trichoderma virens ATCC 9645 | 93.2 |
| O=C1CCc2ccc(OCCCCN3CCN(c4cccc(Cl)c4Cl)CC3)cc2N1 [Aripiprazole] + CCCCNC(=O)OCC#CI [3-iodo-2-propynyl butylcarbamate (IPBC)] | Trichoderma virens ATCC 9645 | 94.2 |
| CN(C)/N=N/c1[nH]cnc1C(N)=O [Dacarbazine] + CCCCNC(=O)OCC#CI [3-iodo-2-propynyl butylcarbamate (IPBC)] | Trichoderma virens ATCC 9645 | 93 |

Proceed to the following item.
// sample CCCCN(CCCC)CCCOC(=O)c1ccc(N)cc1 [Butacaine] + CCCCNC(=O)OCC#CI [3-iodo-2-propynyl butylcarbamate (IPBC)] , its growth yield was 105
